Test system: chickweed (Stellaria media)
Experiment: Test B postemergence plant response
Assay type: in vivo
Details: Postemergence, 125 g ai/ha; scale 0 to 100 (0 no effect, 100 complete control)

{"compound": "COCCn1c(-c2cccc(C)c2)ncc(C(=O)C2=C(O)CCCC2=O)c1=O", "Plant response rating, Chickweed": 98}
{"compound": "Cc1cc(-n2c(-c3cccc(F)c3)ncc(C(=O)C3=C(O)CCCC3=O)c2=O)ccc1F", "Plant response rating, Chickweed": 98}
{"compound": "CCCn1c(-c2cccc(C(F)(F)F)c2)ncc(C(=O)C2=C(O)CCCC2=O)c1=O", "Plant response rating, Chickweed": 100}
{"compound": "CCCn1c(-c2cccc(Br)c2)ncc(C(=O)C2=C(O)CCCC2=O)c1=O", "Plant response rating, Chickweed": 90}
{"compound": "COCCn1c(-c2ccsc2)ncc(C(=O)C2=C(O)C3CCC(C3)C2=O)c1=O (centres unmarked)", "Plant response rating, Chickweed": 100}
